biological target: GluN2C-containing NMDA receptors (Homo sapiens, UniProt Q14957); assay: Two-electrode voltage-clamp recordings from Xenopus laevis oocytes, GluN2C; format: cell-based; conditions: 10 μM test compound with glutamate 100 μM and glycine 30 μM; percent of response without compound; Tables 1-5
Sequence (Q14957 20-1233, other chains not shown): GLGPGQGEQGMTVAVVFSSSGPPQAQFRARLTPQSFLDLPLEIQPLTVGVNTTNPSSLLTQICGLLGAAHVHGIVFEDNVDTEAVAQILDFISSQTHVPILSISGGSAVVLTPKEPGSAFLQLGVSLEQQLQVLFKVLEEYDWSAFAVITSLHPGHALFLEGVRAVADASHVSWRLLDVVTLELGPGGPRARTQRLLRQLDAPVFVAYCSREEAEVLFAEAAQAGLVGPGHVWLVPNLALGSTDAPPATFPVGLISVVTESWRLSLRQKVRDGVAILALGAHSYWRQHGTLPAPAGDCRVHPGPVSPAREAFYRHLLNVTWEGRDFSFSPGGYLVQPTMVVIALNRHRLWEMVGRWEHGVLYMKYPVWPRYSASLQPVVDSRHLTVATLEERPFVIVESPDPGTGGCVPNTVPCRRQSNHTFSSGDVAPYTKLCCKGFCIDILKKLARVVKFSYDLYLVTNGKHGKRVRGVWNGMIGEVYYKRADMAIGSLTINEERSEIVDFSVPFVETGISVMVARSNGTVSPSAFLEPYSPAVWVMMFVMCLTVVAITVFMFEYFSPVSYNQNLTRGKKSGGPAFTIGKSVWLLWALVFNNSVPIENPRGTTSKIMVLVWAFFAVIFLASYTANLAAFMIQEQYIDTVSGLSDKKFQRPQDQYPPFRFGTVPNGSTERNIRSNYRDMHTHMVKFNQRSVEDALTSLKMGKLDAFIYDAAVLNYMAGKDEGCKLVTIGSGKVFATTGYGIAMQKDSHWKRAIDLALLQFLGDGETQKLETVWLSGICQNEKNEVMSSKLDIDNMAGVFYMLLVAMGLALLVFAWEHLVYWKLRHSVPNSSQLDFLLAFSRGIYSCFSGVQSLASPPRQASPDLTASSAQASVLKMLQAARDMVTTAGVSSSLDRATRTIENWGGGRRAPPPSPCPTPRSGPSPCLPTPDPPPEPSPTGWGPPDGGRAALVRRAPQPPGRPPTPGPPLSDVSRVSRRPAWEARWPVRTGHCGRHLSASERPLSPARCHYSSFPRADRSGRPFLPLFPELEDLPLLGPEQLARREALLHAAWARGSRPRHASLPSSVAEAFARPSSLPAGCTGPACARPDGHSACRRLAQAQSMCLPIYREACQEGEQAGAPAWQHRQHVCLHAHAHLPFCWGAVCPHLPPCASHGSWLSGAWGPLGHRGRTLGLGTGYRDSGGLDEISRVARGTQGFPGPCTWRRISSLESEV
valueType: I10 μM/ICONTROL (mean ± SEM, %) Glu N2C
Numeric only. Scale: %

# compound, I10 μM/ICONTROL (mean ± SEM, %) Glu N2C
rows = [
    ("Cc1sc2ncn(CC(=O)O)c(=O)c2c1-c1cccc(Cl)c1 [1 / 3-Cl—Ph / Me / OH]", 93),
    ("CCSC(=O)Cn1cnc2sc(C)c(-c3cccc(Cl)c3)c2c1=O [1 / 3-Cl—Ph / Me / SEt]", 95),
]

# next compound below
I'd like to know its I10 μM/ICONTROL (mean ± SEM, %) Glu N2C. The compound in question is Cc1sc2ncn(CC(=O)N3CCCCC3)c(=O)c2c1-c1ccc(Br)c(Br)c1 [1 / 3,4-Br—Ph / Me / —Npiperidine]
168
